test: pharmacokinetic properties in mouse after single intravenous and oral administration; format: in vivo; conditions: PK data in mouse, @0.2 (dose, unit not given)
PARAMETER: Feces iv

INSERT INTO results (compound, data_value) VALUES
  ('COc1ccc(-c2cnn(C)c2)c2nc(NC(=O)N3CCC(C)(O)CC3)[nH]c12 [compound 22]', '46@0.2%'),
  ('C#CCC1(O)CCN(C(=O)Nc2nc3c(-c4cnn(C)c4)ccc(OC)c3[nH]2)CC1 [compound 92]', '26@0.2%'),
  ('COc1ccc(-c2ccccc2)c2nc(NC(=O)N3CCC(C)(O)CC3)[nH]c12 [compound 12]', '27@0.2%'),
  ('COc1ccc(-c2cnn(C)c2)c2nc(NC(=O)c3ccc(C(=O)N(C)C)cc3)[nH]c12 [compound 93]', '42@0.2%'),
  ('COc1ccc(-c2cnn(C)c2)c2nc(NC(=O)N3CC[C@@]4(CCOC4)C3)[nH]c12 [compound 116]', '16.9@0.2%'),
  ('COc1ccc(-c2cnn(C)c2)c2nc(NC(=O)c3ccnc(N4CC[C@@](C)(O)C4)c3)[nH]c12 [compound 107]', '34@0.2%');
